Values compiled from PubChem BioAssay (NCI).

TGI values, listed per item
tested on: MCF7 breast; assay: NCI tumour cell line growth inhibition, 48 h
result-type: TGI

>>> experimental_result("O=C1CC2(c3ccccc3)ON=C(c3ccccc3)N2c2ccccc2N1 (stereo not drawn)")
"> 100 µM"
>>> experimental_result("O=S(=O)(O)c1cc(O)c2c(N=Cc3ccccc3O)cc(S(=O)(=O)O)cc2c1")
"> 100 µM"
>>> experimental_result("CN(C)CCCNC(=O)c1cc(NC(=O)c2cc(NC(=O)CCc3c[nH]c4ccccc34)cn2C)cn1C")
"> 100 µM"

---

test system: SK-MEL-5 melanoma; assay: NCI tumour cell line growth inhibition, 48 h
TGI values, listed per item
result-type: TGI

>>> experimental_result("O=C1c2ccccc2-c2c1c1c(=O)[nH]c3ccccc3c1n2Cc1ccccc1")
"> 100 µM"
>>> experimental_result("CC(C)OP(=O)(OC(C)C)/C(I)=N/Nc1ccc([N+](=O)[O-])cc1")
"> 100 µM"
>>> experimental_result("O=C(/N=C/c1c(O)c2ccccc2oc1=O)Nc1ccccc1")
"> 100 µM"
